Data provenance: patent US20050004134A1

# melting point annotations

- CC(C)n1nc(-c2sc(N(C)C)nc2-c2ccccc2)ccc1=O: 158 to 160 °C
- CC(C)n1nc(-c2sc(NC(=O)c3ccc(CN4CCOCC4)cc3)nc2-c2ccccc2)ccc1=O: 222 to 224 °C
- CC(C)n1nc(-c2sc(C(=O)NCc3ccncc3)nc2-c2ccc(F)cc2)ccc1=O: 155 to 157 °C
- CC(C)n1nc(-c2sc(NC(=O)CN(C)CCN(C)C)nc2-c2ccccc2)ccc1=O: 155 to 157 °C
- CC(C)n1nc(-c2sc(N)nc2-c2ccc(F)cc2)ccc1=O: 255.5 to 257 °C

In one line, give reported melting point of the entry CC(=O)N(C)c1nc(-c2ccccc2)c(-c2ccc(=O)n(C(C)C)n2)s1 .
165 to 167 °C

In one line, give reported melting point of the entry CCCNC(=O)c1nc(-c2ccc(F)cc2)c(-c2ccc(=O)n(C(C)C)n2)s1 .
146.5 to 147.5 °C

In one line, give reported melting point of the entry CC(=O)NCCNC(=O)c1nc(-c2ccccc2)c(-c2ccc(=O)n(C(C)C)n2)s1 .
170 to 171.5 °C

In one line, give reported melting point of the entry CC(C)n1nc(-c2sc(C(=O)N3CCCC3)nc2-c2ccccc2)ccc1=O .
169 to 170.5 °C

In one line, give reported melting point of the entry CC(C)n1nc(-c2sc(NCc3ccccn3)nc2-c2ccccc2)ccc1=O .
182 to 184 °C

In one line, give reported melting point of the entry CC(C)n1nc(-c2sc(N)nc2-c2ccccc2F)ccc1=O .
233 to 235 °C

In one line, give reported melting point of the entry CC(C)n1nc(-c2sc(NC(=O)c3ccc(CCl)cc3)nc2-c2ccccc2)ccc1=O .
> 250 °C

In one line, give reported melting point of the entry CCCn1nc(-c2sc(C(=O)NCc3ccccn3)nc2-c2ccccc2)ccc1=O .
134 to 135.5 °C

In one line, give reported melting point of the entry CC(C)n1nc(-c2sc(NC(=O)N3CCCCC3)nc2-c2ccccc2)ccc1=O .
138 to 140 °C

In one line, give reported melting point of the entry CC(C)n1nc(-c2sc(NC(=O)CN3CCN(C)CC3)nc2-c2ccccc2)ccc1=O.Cl.Cl .
244 to 246 °C

* * *

measure_name: melting point

• Br.CNc1nc(-c2ccccc2)c(-c2ccc(=O)n(C(C)C)n2)s1 = 226 to 228 °C
• CC(C)n1nc(-c2sc(NC(=O)c3ccc(CN(C)CCc4ccccn4)cc3)nc2-c2ccccc2)ccc1=O = 172 to 174 °C
• C=CCn1nc([SH]2C=C(c3ccccc3)N=C2C(=O)NC2CC2)ccc1=O (stereo not drawn) = 167.5 to 168.5 °C
• CC(C)n1nc(-c2sc(C(=O)NCc3ccccn3)nc2-c2cccc(Cl)c2)ccc1=O = 168 to 169.5 °C
• Cn1nc(-c2sc(N)nc2-c2ccccc2)ccc1=O = 238 to 241 °C

In one line, give reported melting point of the entry C=CCn1nc(-c2sc(N)nc2-c2ccccc2)ccc1=O .
212 to 215 °C

In one line, give reported melting point of the entry CC(C)n1nc(-c2sc(C(=O)NC3CC3)nc2-c2ccccc2)ccc1=O .
127 to 128 °C

In one line, give reported melting point of the entry CC(C)n1nc(-c2sc(NC(=O)Cc3ccccc3)nc2-c2ccccc2)ccc1=O .
250 to 252 °C

In one line, give reported melting point of the entry CC(C)n1nc(-c2sc(NC(=O)CCN3CCOCC3)nc2-c2ccccc2)ccc1=O .
197 to 198 °C

In one line, give reported melting point of the entry CC(C)n1nc(-c2sc(NC(=O)Cn3ccnc3)nc2-c2ccccc2)ccc1=O .
160 to 161 °C

In one line, give reported melting point of the entry C=CCn1nc(-c2sc(C(=O)NC(C)C)nc2-c2ccccc2)ccc1=O .
166 to 167 °C

In one line, give reported melting point of the entry O=C(NCc1ccccn1)c1nc(-c2ccccc2)c(-c2ccc(=O)n(Cc3ccccc3)n2)s1 .
172.5 to 173.5 °C

In one line, give reported melting point of the entry Cc1ccc(S(=O)(=O)NC(=O)Nc2nc(-c3ccccc3)c(-c3ccc(=O)n(C(C)C)n3)s2)cc1 .
172 to 174 °C

In one line, give reported melting point of the entry CC(C)n1nc(-c2sc(NC(=O)C(C)(C)C)nc2-c2ccccc2)ccc1=O .
224 to 226 °C
